- ASSAY INFO: Human HepG2 cell viability assay in 384 well format
- Type: toxicity, cell-based
- Design: dose 125 nL, time 70.5 hour; concentration not given beside the values
- EXPERIMENTAL CONDITIONS: HepG2 cells, read-out: Inhibition
cytotoxicity at 70.5 h values for the compounds below.
Kindly format the answer as number then unit.

Guide cases for cytotoxicity at 70.5 h, answers given:
COMPOUND	cytotoxicity at 70.5 h
O=C(NCCOc1ccc(Cl)cc1)N1CCS(=O)(=O)CC1	9.92%
CCn1cc(S(=O)(=O)N2CCCC3(CC=CNC3=O)C2)cn1 (stereo unspecified)	-0.325%

Then this compound:
input: Please report the recorded cytotoxicity at 70.5 h for O=C(CCN1CCOC(C(F)(F)F)C1)NCc1ccccc1Cl (stereo unspecified) .
output: 15.4%

---

- ASSAY INFO: Human HepG2 cell viability assay in 384 well format
- Format: toxicity, cell-based
- Set-up: dose 125 nL, time 70.5 hour; concentration not given beside the values
- EXPERIMENTAL CONDITIONS: HepG2 cells, read-out: Inhibition
MEASURE NAME: cytotoxicity at 70.5 h (%)
Please state the figure in %; there is no need to write the unit.

Guide cases for cytotoxicity at 70.5 h, answers given:
COMPOUND	U	cytotoxicity at 70.5 h
CC(=O)N[C@H]1C[C@@H](c2nc(-c3ccc4c(c3)OCO4)no2)N(C)C1	%	2.89
O=C(NCCCn1ccnc1)N1CCCC1c1cccs1 (stereo not drawn)	%	-2.86
CCc1c(C)nn2c(O)cc(C3CCN(C(=O)c4ccn(C)n4)C3)nc12 (stereo not drawn)	%	16.4
Cc1nc[nH]c1C(=O)N1CCCC2(C1)C(=O)N(C)c1ccccc12 (stereo not drawn)	%	-3.87
FC(F)(F)c1cc(C2CCN(c3cnccn3)CC2)n2ccnc2n1	%	-5.4

input: Please report the recorded cytotoxicity at 70.5 h for CS(=O)(=O)CCNCc1ccc(OCc2ccccn2)cc1 .
output: 0.418

---

cytotoxicity at 70.5 h values for the compounds below.
- ASSAY INFO: Human HepG2 cell viability assay in 384 well format
- Type: toxicity, cell-based
- Set-up: dose 125 nL, time 70.5 hour; concentration not given beside the values
- EXPERIMENTAL CONDITIONS: HepG2 cells, read-out: Inhibition
Please state the figure in %; there is no need to write the unit.

Guide cases for cytotoxicity at 70.5 h, answers given:
COMPOUND	cytotoxicity at 70.5 h [%]
O=C(Nc1cnn(Cc2ccccc2)c1)N1CCN(CCO)CC1	-4.22
CCNC(=O)NC(C)(C)C(=O)NCCc1csc2ccccc12	2.01
CS(=O)(=O)N1CCCC12CCN(Cc1nccs1)CC2	-3.49
Cn1cc(CCNC(=O)NCc2ccc3c(c2)OCCO3)cn1	2.32
CCN(C(=O)C1=NN(c2ccccc2)C(=O)CN1)c1ccccc1	-2.62

Then this compound:
input: Please report the recorded cytotoxicity at 70.5 h for CCN(CCc1ccccc1)Cn1nc(C)c2c(C)onc2c1=O .
output: -1.87

---

- ASSAY INFO: Human HepG2 cell viability assay in 384 well format
- Assay type: toxicity, cell-based
- Design: dose 125 nL, time 70.5 hour; concentration not given beside the values
- EXPERIMENTAL CONDITIONS: HepG2 cells, read-out: Inhibition
cytotoxicity at 70.5 h values for the compounds below.
Please state the figure in %; there is no need to write the unit.

COMPOUND	cytotoxicity at 70.5 h, %
CC[C@@H]1N(Cc2ccco2)CCC[C@]12CCC(=O)N2C	12.7

input: Please report the recorded cytotoxicity at 70.5 h for Cc1cnn(CCCNC(=O)NCCC(=O)Nc2ccccc2)c1 .
output: -11.8

input: Please report the recorded cytotoxicity at 70.5 h for O=C(Cc1ccc(F)cc1)NCCNCC1CNc2ccnn2C1 (stereo not drawn) .
output: 16.6

input: Please report the recorded cytotoxicity at 70.5 h for COc1ccc(C(=O)O)cc1-c1cccc(C(C)N(C)C)c1 (stereo not drawn) .
output: 0.229

input: Please report the recorded cytotoxicity at 70.5 h for O=C(c1cccc(N2CCCC2=O)c1)N1CCCC(n2cccn2)C1 (stereo not drawn) .
output: -6.59

input: Please report the recorded cytotoxicity at 70.5 h for COc1ccc(C(=O)NCC(c2cccn2C)N2CCCC2)c(OC)c1 (stereo not drawn) .
output: 14.2

input: Please report the recorded cytotoxicity at 70.5 h for O=C(O)c1cc(-c2ccncc2F)cc(S(=O)(=O)N2CCCCCC2)c1 .
output: -23.6

input: Please report the recorded cytotoxicity at 70.5 h for O=C(NC[C@@]1(COc2cnccn2)C[C@@H](O)[C@@H](O)C1)C1CCOCC1 .
output: -1.95

input: Please report the recorded cytotoxicity at 70.5 h for O=S(=O)(C1CC1)N1CCO[C@@H]2CN(Cc3ccco3)C[C@@H]2C1 .
output: -2.12

input: Please report the recorded cytotoxicity at 70.5 h for COc1ccc2c(O)c(NC(=O)NCC3CC3)cnc2c1 .
output: 9.51

input: Please report the recorded cytotoxicity at 70.5 h for O=C(NCC1CC1)c1nc2c(o1)CN(CC1CC1)C2 .
output: -6.5

input: Please report the recorded cytotoxicity at 70.5 h for CCc1[nH]ncc1C(=O)N1CCCC(n2cc(C)cn2)C1 (stereo not drawn) .
output: -5.59

From: ChEMBL document CHEMBL3507680
